System: HCT116
Assay Notes: cell viability (CellTiter-Glo) relative to plate median (fraction of plate median); higher = more viable cells
Settings: 5 µM; treatment time 24 h; reporter: TCF4/Wnt
Response field label: string, one of Met (cell viability strictly below 1) or Not met.

O=[N+]([O-])c1ccc(O)c([N+](=O)[O-])c1
Met

Query: In plain terms, does CC(=O)OC1CCC23C(=O)OC45CCC(C6=CC(=O)OC6)C4(C)CCC2C5CCC3(O)C1 (configuration not stated) come in under 1 for cell viability?
Response: Met

Query: Try `CC(=O)O[C@H]1C[C@@H]2CC[C@@H]3[C@H](CC[C@@]4(C)[C@H]3C[C@H]([N+]3(C)CCCCC3)[C@@H]4OC(C)=O)[C@@]2(C)C[C@@H]1[N+]1(C)CCCCC1` next.
Response: Not met

----------
Tested on: DLD1
Assay Notes: cell viability (CellTiter-Glo) relative to plate median (fraction of plate median); higher = more viable cells
Settings: 5 µM; treatment time 24 h; reporter: 7TFP
Recorded Endpoint: cell viability
I only need the number, thanks.

COC(=O)C1=CCCN(C)C1
0.991
CC1=C2[C@H]3OC(=O)[C@@H](C)[C@@H]3CC[C@@]2(C)C=CC1=O
1.08
Cc1cc2c(C(C)C)c(O)c(O)c(C=O)c2c(O)c1-c1c(C)cc2c(C(C)C)c(O)c(O)c(C=O)c2c1O
0.974
CC(CCc1ccccc1)NC(C)C(O)c1ccc(O)cc1 (stereo unspecified)
0.942

Now for another entry.
Query: I am curious: what cell viability value has been reported for `COC(=O)[C@]1(C)CC[C@]2(C)CC[C@]3(C)C4=CC=C5C(=CC(=O)C(O)=C5C)[C@]4(C)CC[C@@]3(C)[C@@H]2C1` ?
Response: 0.981

----------
compounds and their reported cell viability
Tested on: HCT116
Assay Notes: cell viability (CellTiter-Glo) relative to plate median (fraction of plate median); higher = more viable cells
Settings: 5 µM; treatment time 24 h; reporter: TCF4/Wnt
I only need the number, thanks.

The following compounds have reported results that may help.
CN1C(=O)CCS(=O)(=O)C1c1ccc(Cl)cc1 (stereo not drawn)
1.02
CNC(C)[C@H](O)c1ccccc1 (stereo partly drawn)
0.917
O=P1(NCCCl)OCCCN1CCCl (stereo not drawn)
0.996

Query: I am curious: what cell viability value has been reported for `COC(=O)C1=CCCN(C)C1` ?
Response: 1.07

----------
System: HCT116
Assay Notes: cell viability (CellTiter-Glo) relative to plate median (fraction of plate median); higher = more viable cells
Settings: 5 µM; treatment time 24 h; reporter: TCF4/Wnt
Recorded Endpoint: cell viability

Query: I am curious: what cell viability value has been reported for CC1(C)C2CC(=O)[C@]3(C)C(CC[C@@]4(C)[C@H](c5ccoc5)OC(=O)C5OC543)[C@@]2(C)[C@@H](O)C[C@H]1O (some centres undefined) ?
Response: 1.04

Query: Try `CNC(C)(C)Cc1ccccc1` next.
Response: 1.01

Query: Try `CC(=O)O[C@H]1C(=O)[C@@]2(C)[C@H]([C@H](OC(=O)c3ccccc3)[C@]3(O)C[C@H](O)C(C)=C1C3(C)C)[C@]1(OC(C)=O)CO[C@@H]1C[C@@H]2O` next.
Response: 1.04

Query: Try `CCC[C@H]1CCCCN1` next.
Response: 0.936

Query: Try CCCC(C)(COC(N)=O)COC(=O)NC(C)C (centres undefined) next.
Response: 0.994

----------
Test system: HCT116
Assay Notes: cell viability (CellTiter-Glo) relative to plate median (fraction of plate median); higher = more viable cells
Settings: 5 µM; treatment time 24 h; reporter: TCF4/Wnt
Recorded Endpoint: cell viability
I only need the number, thanks.

The following compounds have reported results that may help.
CCN1C[C@]2(COC)[C@H](O)C[C@H](OC)[C@@]34[C@@H]5C[C@@]6(O)[C@H](OC(=O)c7ccccc7)[C@@H]5[C@@](OC(C)=O)([C@@H]([C@H](OC)[C@H]23)[C@@H]14)[C@@H](O)[C@@H]6OC
1.04
c1ccc2c(c1)sc1ccccc12
0.97
COc1cc(OC)c2c(c1)O[C@H](c1ccc(OC)c(OC)c1)[C@@H](O)C2
0.955
CC[C@H]1[C@@H]2C[C@H]3[C@@H]4N(C)c5ccccc5[C@]45C[C@@H]([C@@H]2[C@H]5O)N3[C@@H]1O
0.899
C=CCSSCC=C
1.04

Query: I am curious: what cell viability value has been reported for `COc1cc([C@@H]2c3cc4c(cc3[C@H](OC(C)=O)[C@H]3COC(=O)[C@H]23)OCO4)cc(OC)c1OC` ?
Response: 0.567

Query: Try `Oc1ccc(Cl)cc1` next.
Response: 0.892

Query: Try `C[C@]12CC[C@H](Cl)C[C@@H]1CC[C@@H]1[C@@H]2CC[C@]2(C)C(=O)CC[C@@H]12` next.
Response: 0.981

Query: Try `CC(C)[N+](C)(CCC(C(N)=O)(c1ccccc1)c1ccccc1)C(C)C` next.
Response: 1.05

Query: Try `NCC(=O)c1ccccc1` next.
Response: 0.999

Query: Try `O=C1C=C2C=C[C@@H]3C[C@@]2(O1)[C@H]1CCCCN31` next.
Response: 1.11

Query: Try CCC(C)C(=O)O[C@@H]1C[C@@]2(C)[C@H](c3ccoc3)OC(=O)CC23OC2(C)O[C@]14[C@]1(C)[C@@H](CC(=O)OC)C5(C)CC1(O)[C@](O)(C5OC(=O)C1(C)OC1C)[C@@H](OC(C)=O)[C@]34O2 (some centres not stated) next.
Response: 0.961

----------
Test system: DLD1
Assay Notes: TCF/Wnt firefly luciferase reporter signal relative to plate median (fraction of plate median); higher = higher Wnt reporter signal
Settings: 10 µM; treatment time 24 h; reporter: 7TFP
Recorded Endpoint: TCF/Wnt firefly luciferase reporter signal
I only need the number, thanks.

The following molecules have reported results that may help.
CN[C@@H]1C[C@H]2O[C@@](C)([C@@H]1OC)n1c3ccccc3c3c4c(c5c6ccccc6n2c5c31)C(=O)NC4
0.204
CC(C)(C)c1cc(C=C(C#N)C#N)cc(Br)c1O
1.2
Cc1ccccc1-n1c(Cn2cnc3c(N)ncnc32)nc2cccc(C)c2c1=O
1.02
O=c1[nH]c2ccc(Cl)cc2c(N[C@@H]2CN3CCC2CC3)c1-c1nc2ccccc2[nH]1
2.27

Now for another entry.
Query: I am curious: what TCF/Wnt firefly luciferase reporter signal value has been reported for `Cc1ccccc1-n1c(Cn2ncc3c(N)ncnc32)nc2cccc(C)c2c1=O` ?
Response: 1.11

----------
Test system: DLD1
Assay Notes: cell viability (CellTiter-Glo) relative to plate median (fraction of plate median); higher = more viable cells
Settings: 5 µM; treatment time 24 h; reporter: 7TFP
molecules and their reported cell viability
I only need the number, thanks.

The following molecules have reported results that may help.
CCCCCCCCCCCCCCCC[n+]1ccccc1
0.885
C/C=C(\C)C(=O)O[C@H]1C[C@@H](OC(C)=O)[C@@]2(C(=O)OC)CO[C@H]3[C@@H](O)[C@@](C)([C@]45O[C@@]4(C)[C@H]4C[C@@H]5O[C@@H]5OC=C[C@@]54O)[C@H]4[C@]1(CO[C@]4(O)C(=O)OC)[C@@H]32
0.998
COc1ccc(O)c2c(=O)c3c(OC)cc4c(c3oc12)C1C=COC1O4 (centres undefined)
1.06
O=C1C=C2C=C[C@@H]3C[C@@]2(O1)[C@H]1CCCCN31
1.1
NCCc1c[nH]c2ccccc12
0.991
Oc1ccc2c3c1O[C@H]1[C@@H](O)CC[C@@]4(O)[C@@H](C2)N(CC2CCC2)CC[C@]314
1
c1ccc2nc(N3CCNCC3)ccc2c1
0.994
C[CH2][Hg][S]c1ccccc1C(=O)[O-].[Na+]
0.303
CC1CC(Cl)CCC1C(=O)OC(C)(C)C (centres undefined)
0.973
N#C[C@H](O[C@@H]1O[C@H](CO[C@@H]2O[C@H](CO)[C@@H](O)[C@H](O)[C@H]2O)[C@@H](O)[C@H](O)[C@H]1O)c1ccccc1
1.01

Query: I am curious: what cell viability value has been reported for `O=c1c(O)c(-c2ccc(O)c(O)c2)oc2c(O)c(O)cc(O)c12` ?
Response: 0.905

Query: Try `COP(=O)(OC)OC=C(Cl)Cl` next.
Response: 1.05

Query: Try `CC1=C(O)C(=O)C=C2C1=CC=C1[C@@]2(C)CC[C@@]2(C)[C@@H]3C[C@](C)(C(=O)O)CC[C@]3(C)CC[C@]12C` next.
Response: 0.801

Query: Try `CN(C)C(=O)Oc1cccc([N+](C)(C)C)c1` next.
Response: 1.06

Query: Try CC[N+]1(C)CCCC(OC(=O)C(O)(c2ccccc2)c2ccccc2)C1 (centres undefined) next.
Response: 0.945

Query: Try O=C(O)CC[N+](=O)[O-] [BOVINOCIDIN (3-nitropropionic acid)] next.
Response: 0.951

Query: Try CC(C)=CCCC1(C)C=Cc2c(O)c3c(c(CC=C(C)C)c2O1)OC12C(=CC4CC1C(C)(C)OC2(C/C=C(/C)C(=O)O)C4O)C3=O (centres undefined) next.
Response: 0.911

Query: Try `Cl[C@H]1[C@H](Cl)[C@@H](Cl)[C@@H](Cl)[C@H](Cl)[C@H]1Cl` next.
Response: 1.05

Query: Try `COc1ccc(C[C@H]2NC[C@H](O)[C@H]2OC(C)=O)cc1` next.
Response: 0.831
